- system: T1, EsCas13d, nuclease-dead (Eubacterium siraeum, UniProt B0MS50, R295A;H300A;R849A;H854A)
- T1 sequence: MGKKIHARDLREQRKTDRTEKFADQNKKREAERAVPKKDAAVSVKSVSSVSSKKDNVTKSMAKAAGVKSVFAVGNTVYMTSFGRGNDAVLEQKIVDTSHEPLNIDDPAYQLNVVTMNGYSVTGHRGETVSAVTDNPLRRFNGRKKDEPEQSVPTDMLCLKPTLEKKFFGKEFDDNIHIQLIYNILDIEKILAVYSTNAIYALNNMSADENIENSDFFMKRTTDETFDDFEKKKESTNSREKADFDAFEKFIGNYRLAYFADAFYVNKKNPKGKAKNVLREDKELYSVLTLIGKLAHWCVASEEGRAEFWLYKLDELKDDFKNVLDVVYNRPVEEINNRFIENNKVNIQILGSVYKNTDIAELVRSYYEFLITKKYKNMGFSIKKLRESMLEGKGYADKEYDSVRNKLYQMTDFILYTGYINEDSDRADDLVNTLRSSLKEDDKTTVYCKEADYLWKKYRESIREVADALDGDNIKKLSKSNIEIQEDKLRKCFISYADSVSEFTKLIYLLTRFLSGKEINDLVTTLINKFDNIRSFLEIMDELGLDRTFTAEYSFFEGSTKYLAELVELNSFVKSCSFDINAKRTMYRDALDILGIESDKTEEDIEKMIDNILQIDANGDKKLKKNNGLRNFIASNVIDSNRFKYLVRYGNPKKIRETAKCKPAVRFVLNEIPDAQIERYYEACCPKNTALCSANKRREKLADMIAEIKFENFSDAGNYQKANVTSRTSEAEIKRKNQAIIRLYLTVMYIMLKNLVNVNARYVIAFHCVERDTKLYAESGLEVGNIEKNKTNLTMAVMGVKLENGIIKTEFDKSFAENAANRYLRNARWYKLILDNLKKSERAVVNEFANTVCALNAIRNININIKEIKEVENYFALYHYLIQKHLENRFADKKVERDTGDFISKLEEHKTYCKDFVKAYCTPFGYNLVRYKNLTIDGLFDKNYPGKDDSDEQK
- measurement_protocol: crRNA (strand 1, pre-loaded); Mg2+; 40 mM Tris-HCl pH 7.5, 150 mM NaCl, 6 mM MgCl2, 1 mM DTT, 0.1% Tween-20, 0.2 mg/ml BSA; 25 C; 10 min per concentration, then washed
- experimental_parameters: tags: His6-TwinStrep-SUMO cleaved; N-terminal SNAP kept (SNAP-Surface 488); label: 3' end held by stalled T7 RNA polymerase
So I've got a bunch of binders here, and I need their Kd values.
One number for each entry, in nM.

These recorded examples may help you get a feel for the data.
target 2 MT 5'PFS CUU 3'PFS UGU (mixed) RNA 1: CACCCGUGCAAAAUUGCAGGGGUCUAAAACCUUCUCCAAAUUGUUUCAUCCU RNA 2: GGGAAUGGAUCCACAUCUACGAAUUCCUUAGGAUGAAACAAUUUGGAGAAGUGUAGAUCGGAAGAGCACACGU :: 4.26
target 1 insU 3' of 5,insU 3' of 2 (mixed) RNA 1: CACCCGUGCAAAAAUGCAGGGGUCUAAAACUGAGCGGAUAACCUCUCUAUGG RNA 2: GGGAAUGGAUCCACAUCUACGAAUUCGUACCAUAGAGAGGUUAUCCGUCUCUACCGAGAUCGGAAGAGCACACGU :: 14.8

Hi, could you look up Kd for each item in my list?
1. target 2 MT 5'PFS CAU 3'PFS AUA (mixed) RNA 1: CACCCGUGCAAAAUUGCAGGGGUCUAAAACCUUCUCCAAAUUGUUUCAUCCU RNA 2: GGGAAUGGAUCCACAUCUACGAAUUCCAUAGGAUGAAACAAUUUGGAGAAGAUAAGAUCGGAAGAGCACACGU
2. target 2 MT 5'PFS GUA 3'PFS GAA (mixed) RNA 1: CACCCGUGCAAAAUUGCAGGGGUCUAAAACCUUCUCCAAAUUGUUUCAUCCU RNA 2: GGGAAUGGAUCCACAUCUACGAAUUCGUAAGGAUGAAACAAUUUGGAGAAGGAAAGAUCGGAAGAGCACACGU
3. target 3 insA 3' of 10,insA 3' of 6 (mixed) RNA 1: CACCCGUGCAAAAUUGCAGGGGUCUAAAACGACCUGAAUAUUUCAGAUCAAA RNA 2: GGGAAUGGAUCCACAUCUACGAAUUCGUUUUUGAUCUGAAAUAAUUCAAGGUCUGCAGAUCGGAAGAGCACACGU
4. target 1 MT 5'PFS GUG 3'PFS AUC (mixed) RNA 1: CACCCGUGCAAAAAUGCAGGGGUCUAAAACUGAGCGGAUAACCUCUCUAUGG RNA 2: GGGAAUGGAUCCACAUCUACGAAUUCGUGCCAUAGAGAGGUUAUCCGCUCAAUCAGAUCGGAAGAGCACACGU

1. 3.31
2. 6.7
3. 71
4. 19.9

Record target 1 MT 5'PFS AGG 3'PFS AUU (mixed) RNA 1: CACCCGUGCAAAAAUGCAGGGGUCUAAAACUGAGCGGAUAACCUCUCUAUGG RNA 2: GGGAAUGGAUCCACAUCUACGAAUUCAGGCCAUAGAGAGGUUAUCCGCUCAAUUAGAUCGGAAGAGCACACGU , field Kd: 26.5
